Entries and their melting point
Report only the number, with the unit °C understood.

[[record]]
compound = "NC(=O)Cc1cccc2ccccc12"
measured_metric = "melting point"
value = 184

[[record]]
compound = "S=c1sc2nc3ccccc3nc2s1"
measured_metric = "melting point"
value = 180

[[record]]
compound = "CCC(Cl)CC"
measured_metric = "melting point"
value = -105

[[record]]
compound = "CCCCCCCCCCCCCC(C)CC (centres undefined)"
measured_metric = "melting point"
value = -15

[[record]]
compound = "CC(CO)c1ccccc1 (centres undefined)"
measured_metric = "melting point"
value = -13


NC(=O)c1cccc(C(N)=O)c1 yielded melting point of 280

CCCCCCCCCCC(C)C yielded melting point of -26

CC(=O)Nc1ccc(C)cc1Br yielded melting point of 118

###

Entries and their melting point
Report only the number, with the unit °C understood.

[[record]]
molecule = "COc1ccc(N)cc1N"
measured_metric = "melting point"
value = 67.5


O=C(O)C(=O)Nc1ccccc1 yielded melting point of 150

O=C(C1=NOC2C(=O)N(c3ccccc3)C(=O)C12)c1ccccc1 (configuration not stated) yielded melting point of 161

c1ccc(N=NNc2ccccc2)cc1 yielded melting point of 98

###

measured_metric: melting point

O[C@H](C1CCCCC1)[C@H](O)C1CCCCC1 yielded melting point of 136 to 141 °C

CC1(C)c2ccccc2N(Cc2ccccc2)C12C=Cc1cc([N+](=O)[O-])ccc1O2 (stereo not drawn) yielded melting point of 158 to 160 °C

CC(=O)c1ccc(OCCCCCBr)cc1O yielded melting point of 63 to 66 °C

O=C1Cc2c1cccc2[N+](=O)[O-] yielded melting point of 115 to 117 °C

O=C(O)C1(Cl)CC2C=CC1C2 (stereo not drawn) yielded melting point of 139 to 141 °C

CCOc1cc(NC(=O)c2ccccc2)c(OCC)cc1N yielded melting point of 98 to 100 °C

CN(C)c1ccc(C2Nn3c(nnc3-c3cccc([N+](=O)[O-])c3)S2)cc1 (stereo not drawn) yielded melting point of 197 to 199 °C

COC(=O)C1(C(=O)OC)C=C(OC)c2ccccc21 yielded melting point of 114 to 115 °C

###

measured_metric: melting point

In the examples that follow, each entry is paired with its recorded melting point.
[[record]]
compound = "CCCCc1ccc(/N=N/c2ccc(OCCC)cc2)cc1"
value = "66 to 68 °C"

[[record]]
compound = "Fc1ccc(C=Nc2n[nH]c(N=Cc3ccc(F)cc3)c2Cc2ccc(Cl)cc2)cc1"
value = "223 to 225 °C"

[[record]]
compound = "Cc1cc(Br)cc(Br)c1N"
value = "44 to 49 °C"

[[record]]
compound = "CC(C)(Br)C(=O)NC12CC3CC(CC(C3)C1)C2"
value = "114 to 115 °C"

[[record]]
compound = "NC(c1cccc2ccccc12)C(N)c1cccc2ccccc12 (stereo unspecified)"
value = "174 to 177 °C"


O=C(O)c1c(F)cccc1C(F)(F)F yielded melting point of 88 to 89 °C

###

measured_metric: melting point

In the examples that follow, each entry is paired with its recorded melting point.
[[record]]
compound = "COC(=O)c1ccc(S(=O)(=O)NC(C)(C)C)n1C"
measured_metric = "melting point"
value = "104 to 105 °C"

[[record]]
compound = "Cc1cc(C)n2nc(N)c(Cc3ccc(F)cc3)c2n1"
measured_metric = "melting point"
value = "208 to 210 °C"

[[record]]
compound = "Cc1oc(-c2ccccc2)nc1C=O"
measured_metric = "melting point"
value = "87 to 88 °C"

[[record]]
compound = "O=Cc1ccc(OCc2ccccc2)c(OCc2ccccc2)c1"
measured_metric = "melting point"
value = "88 to 92 °C"

[[record]]
compound = "N#Cc1c(NC(=O)CN2CCOCC2)sc2c1CCCC2"
measured_metric = "melting point"
value = "178 to 179 °C"

[[record]]
compound = "NC(=O)CCSCCC(N)=O"
measured_metric = "melting point"
value = "183 to 186 °C"

[[record]]
compound = "Cc1ccc(C(N)CC(=O)O)cc1 (stereo not given)"
measured_metric = "melting point"
value = "223 to 227 °C"

[[record]]
compound = "ON=C1CCCc2c1nc(-c1ccccc1)n2O"
measured_metric = "melting point"
value = "270 to 272 °C"


CS(=O)(=O)Oc1ccccc1 yielded melting point of 62 to 63 °C

CC(=O)O[C@H](c1ccccc1)C(O)(c1ccccc1)c1ccccc1 yielded melting point of 248 to 252 °C

###

Entries and their melting point

In the examples that follow, each entry is paired with its recorded melting point.
[[record]]
molecule = "O=C(O)C=CC(=O)Nc1ccc(Cl)cc1"
value = "200 to 203 °C"

[[record]]
molecule = "NC(COc1ccccc1)=NO"
value = "93 to 94 °C"

[[record]]
molecule = "CC(=O)c1cc([N+](=O)[O-])c(Br)s1"
value = "105 to 106 °C"


CCOC(=O)c1oc(C(=O)OCC)c(O)c1O yielded melting point of 178 to 180 °C

COc1cc(Br)c(CO)cc1OC yielded melting point of 95 to 100 °C

OC1Cc2ccccc21 (stereo not given) yielded melting point of 58 to 59 °C

CS(=O)(=O)c1ccc(C(=O)CBr)cc1 yielded melting point of 126 to 128 °C

COc1ccc(C(O)C(C)(C)C(=O)O)cc1 (stereo not given) yielded melting point of 115 to 117 °C

c1ccc(-c2nnc(-c3ccccn3)c(-c3ccccn3)n2)nc1 yielded melting point of 186 to 188 °C

CC1=CC(=O)CC(C)(C)C1=O yielded melting point of 26 to 28 °C

COc1ccc2c(c1)CCC(=Cc1ccccc1)C2=O yielded melting point of 75 to 75.5 °C

Cc1csc(C(=O)NN)c1Cl yielded melting point of 130 to 132 °C

Cc1onc(-c2c(F)cccc2Cl)c1C#N yielded melting point of 78 to 81 °C

O=[N+]([O-])c1ccc(C(Cl)C(Cl)c2cccc(C(Cl)C(Cl)c3ccc([N+](=O)[O-])cc3[N+](=O)[O-])c2)c([N+](=O)[O-])c1 (stereo not given) yielded melting point of 90 to 108 °C

O=C(O)c1ccc(N2CCOCC2)s1 yielded melting point of 135 to 137 °C

###

Entries and their melting point

Cc1cccc(C=CC(=O)O)c1 yielded melting point of 116 to 119 °C

COc1c(C#N)cc(C)c2c1CCC2 yielded melting point of 62 to 63 °C

Cc1cccc(NC(=O)C(F)(F)F)c1C(=O)O yielded melting point of 168 to 169 °C

Cc1ccnc(O)c1[N+](=O)[O-] yielded melting point of 228 to 232 °C

###

Entries and their melting point

In the examples that follow, each entry is paired with its recorded melting point.
[[record]]
compound = "BrCc1cccc2cccnc12"
value = "81 to 82 °C"

[[record]]
compound = "CC(O)C(NC(=O)OC(C)(C)C)C(=O)O (stereo not drawn)"
value = "79 °C"

[[record]]
compound = "O=C1OC(=O)C23Cc4ccccc4CC12Cc1cc2c(cc1C3)CC2 (stereo not drawn)"
value = "248 to 252 °C"

[[record]]
compound = "CC1(C)OC2(C)CCC1C(=O)OC2(C)C (stereo not drawn)"
value = "78 °C"


N#CCN=C(c1ccccc1)c1ccccc1 yielded melting point of 83 to 86 °C

NC(=NO)C(N)=NO yielded melting point of 200 to 204 °C

CNC(=Nc1ncccc1C)SC yielded melting point of 25 to 27 °C

O=Cc1ccc(-c2ccc(Cl)cc2)o1 yielded melting point of 128 to 131 °C

###

measured_metric: melting point

[[record]]
compound = "N#CSc1ccc(N)c(C(=O)O)c1"
measured_metric = "melting point"
value = "165 to 168 °C"


C=CCN1C(=O)CSC1=S yielded melting point of 43 to 46 °C

Sc1nnc(-c2ccco2)n1-c1ccc2c(c1)OCCO2 yielded melting point of 237 to 240 °C

###

measured_metric: melting point

In the examples that follow, each entry is paired with its recorded melting point.
[[record]]
mol_smiles = "O=C(N=C=S)c1ccc([N+](=O)[O-])cc1"
measured_metric = "melting point"
value = "90 to 92 °C"

[[record]]
mol_smiles = "Cc1ccc(O)c(I)n1"
measured_metric = "melting point"
value = "195 to 201 °C"

[[record]]
mol_smiles = "OCC(F)(F)C(F)(F)C(F)(F)C(F)(F)C(F)(F)C(F)(F)CO"
measured_metric = "melting point"
value = "80 to 83 °C"

[[record]]
mol_smiles = "N#C/C(=C/c1ccc(Cl)cc1Cl)c1nc2ccccc2c(=O)[nH]1"
measured_metric = "melting point"
value = "298 to 300 °C"

[[record]]
mol_smiles = "CCOC(=O)c1sc(Cl)nc1C"
measured_metric = "melting point"
value = "46 to 47 °C"


Note: attention shifts to another entry.
CCC(=O)c1ccc(O)c(C)c1O yielded melting point of 128 to 130 °C
